Values were extracted from ChEMBL document CHEMBL3991601.

# STUDY TARGET: Serine/threonine-protein kinase TAO3 (Homo sapiens); note: in the data inactive means no Kd found up to 30 µM
# Sequence (Q9H2K8 whole entry): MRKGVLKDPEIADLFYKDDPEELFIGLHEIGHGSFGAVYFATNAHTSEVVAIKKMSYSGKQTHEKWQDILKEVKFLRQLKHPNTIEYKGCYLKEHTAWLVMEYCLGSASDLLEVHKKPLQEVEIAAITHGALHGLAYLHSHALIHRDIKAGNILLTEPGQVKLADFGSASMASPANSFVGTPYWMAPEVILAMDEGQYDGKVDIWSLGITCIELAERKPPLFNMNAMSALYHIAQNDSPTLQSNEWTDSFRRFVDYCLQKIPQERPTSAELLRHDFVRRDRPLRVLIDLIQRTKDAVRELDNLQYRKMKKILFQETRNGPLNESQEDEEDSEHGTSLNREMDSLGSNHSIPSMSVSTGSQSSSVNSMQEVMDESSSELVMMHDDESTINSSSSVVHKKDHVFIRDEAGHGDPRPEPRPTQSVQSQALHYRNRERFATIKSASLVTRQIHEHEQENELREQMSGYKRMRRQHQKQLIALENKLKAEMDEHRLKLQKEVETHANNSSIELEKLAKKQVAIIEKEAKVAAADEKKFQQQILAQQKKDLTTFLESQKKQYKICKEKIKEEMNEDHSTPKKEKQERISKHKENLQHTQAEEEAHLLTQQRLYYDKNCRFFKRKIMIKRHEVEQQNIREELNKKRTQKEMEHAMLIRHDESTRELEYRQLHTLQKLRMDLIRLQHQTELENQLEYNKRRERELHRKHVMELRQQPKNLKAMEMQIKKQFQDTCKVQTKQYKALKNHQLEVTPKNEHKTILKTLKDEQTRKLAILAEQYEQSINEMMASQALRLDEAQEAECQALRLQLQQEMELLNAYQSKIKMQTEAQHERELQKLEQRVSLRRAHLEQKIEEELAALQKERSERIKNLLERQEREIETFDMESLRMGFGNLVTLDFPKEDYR
Calls of active or inactive are those of the source.
Allowed answers: active, inactive

Answered cases to consult:
INSERT INTO assay_data (compound, discrete_label) VALUES
  ('N#CC1(c2ccc(NC(=O)c3cccnc3NCc3ccncc3)cc2)CCCC1', 'inactive'),
  ('Cn1cc(-c2cnc3ccc4ccc(CS(=O)(=O)NCc5ccccn5)cc4c(=O)c3c2)cn1', 'inactive'),
  ('C[C@@H](Oc1cc(C(=O)Nc2ccc(C(=O)N3CCN(C)CC3)cc2)nnc1N)c1c(Cl)ccc(F)c1Cl', 'inactive'),
  ('O=C(Nc1cc(C(F)(F)F)cc(C(F)(F)F)c1)c1cc(Cl)ccc1O', 'inactive'),
  ('C[C@@H](NC(=O)c1ncnc(N)c1Cl)c1ncc(C(=O)Nc2cc(C(F)(F)F)c(Cl)cn2)s1', 'inactive');

Query: # outcome recorded in this test, key = "COc1cc(Nc2ncc3c(n2)-c2ccc(Cl)cc2C(c2c(F)cccc2OC)=NC3)ccc1C(=O)O"
Result: inactive

Query: # outcome recorded in this test, key = "Cc1cc(C(=O)NOCCO)c(Nc2ccc(I)cc2F)n(C)c1=O"
Result: inactive

Query: # outcome recorded in this test, key = "COc1cc([C@@H]2c3cc4c(cc3[C@H](O)[C@H]3COC(=O)[C@@H]23)OCO4)cc(OC)c1OC"
Result: inactive

----------
# STUDY TARGET: Protein kinase C theta type (Homo sapiens, UniProt Q04759); note: in the data inactive means no Kd found up to 30 µM
# Sequence (Q04759 whole entry): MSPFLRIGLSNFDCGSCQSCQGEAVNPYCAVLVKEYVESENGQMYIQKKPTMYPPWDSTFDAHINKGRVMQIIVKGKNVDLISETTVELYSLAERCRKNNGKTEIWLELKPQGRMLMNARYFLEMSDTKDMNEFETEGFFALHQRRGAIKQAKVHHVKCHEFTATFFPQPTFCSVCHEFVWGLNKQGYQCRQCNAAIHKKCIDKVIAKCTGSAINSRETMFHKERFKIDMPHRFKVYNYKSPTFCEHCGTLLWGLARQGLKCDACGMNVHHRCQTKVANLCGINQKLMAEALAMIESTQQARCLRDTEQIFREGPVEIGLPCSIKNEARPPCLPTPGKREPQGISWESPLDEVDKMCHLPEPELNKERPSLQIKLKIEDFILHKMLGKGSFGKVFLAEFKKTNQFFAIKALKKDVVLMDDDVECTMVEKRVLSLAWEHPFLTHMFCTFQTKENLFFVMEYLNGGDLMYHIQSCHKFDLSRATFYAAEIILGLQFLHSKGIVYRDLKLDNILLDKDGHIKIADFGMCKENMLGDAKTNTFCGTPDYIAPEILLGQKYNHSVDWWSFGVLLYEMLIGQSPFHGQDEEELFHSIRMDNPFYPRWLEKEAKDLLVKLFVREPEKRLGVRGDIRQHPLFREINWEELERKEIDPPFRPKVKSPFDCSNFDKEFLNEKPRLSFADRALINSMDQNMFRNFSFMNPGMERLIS
Activity calls are given as the source filed them.
Allowed answers: 1.0 for active, 0.0 for inactive

INSERT INTO assay_data (compound, discrete_label) VALUES
  ('Cc1cc(C(=O)NOCCO)c(Nc2ccc(I)cc2F)n(C)c1=O', 0.0),
  ('C=CC(=O)N1CCC[C@H](n2c(=O)n(-c3ccc(Oc4ccccc4)cc3)c3c(N)ncnc32)C1', 0.0),
  ('CNC(=O)c1cc(Oc2ccc(NC(=O)Nc3cc(C(C)(C)C)nn3-c3ccc4ncccc4c3)c(F)c2)ccn1', 0.0),
  ('Nc1ncnc2c1c(-c1cccc(OCc3ccccc3)c1)cn2[C@H]1C[C@@H](CN2CCC2)C1', 0.0),
  ('Cc1nc2cc(-n3ncc(C(=O)c4cc5ccccc5[nH]4)c3N)ccc2[nH]1', 0.0);

Query: # outcome recorded in this test, key = "Cc1cnc(NC(=O)Nc2cc(Br)c(C)cc2OC[C@@H]2CNCCO2)cn1"
Result: 0.0

Query: # outcome recorded in this test, key = "O=C(Cc1ccc(-c2ccc(OCCN3CCOCC3)cc2)cn1)NCc1ccccc1"
Result: 0.0

----------
# STUDY TARGET: UniProt Q6ZSR9
# Sequence (Q6ZSR9 whole entry): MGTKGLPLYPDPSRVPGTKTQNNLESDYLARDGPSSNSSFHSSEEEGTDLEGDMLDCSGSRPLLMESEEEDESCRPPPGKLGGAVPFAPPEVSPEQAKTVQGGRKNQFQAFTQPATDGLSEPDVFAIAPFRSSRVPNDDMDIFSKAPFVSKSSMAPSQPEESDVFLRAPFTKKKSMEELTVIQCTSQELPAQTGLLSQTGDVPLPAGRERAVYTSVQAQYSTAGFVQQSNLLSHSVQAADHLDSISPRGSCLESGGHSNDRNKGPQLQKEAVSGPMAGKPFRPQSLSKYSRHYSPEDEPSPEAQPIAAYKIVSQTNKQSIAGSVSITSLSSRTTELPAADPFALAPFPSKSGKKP
# MEASUREMENT SETUP: read-out: Kd apparent; k-562, colo 205, sk-n-be(2) and mv-4-11; note: in the data inactive means no Kd found up to 30 µM
Counter-ions that a name gives are not always drawn. Calls of active or inactive are those of the source.
Allowed answers: TRUE for active, FALSE for inactive

INSERT INTO measurements (molecule, discrete_label) VALUES
  ('O=c1[nH]ccc2cc(OC3CCNCC3)ccc12 [SAR-407899 FREE BASE]', 'TRUE'),
  ('N#CC1(c2ccc(NC(=O)c3cccnc3NCc3ccncc3)cc2)CCCC1 [RIVOCERANIB]', 'FALSE'),
  ('CN(C[C@@H]1COCCO1)S(=O)(=O)Nc1ccc2ccc3ncc(-c4cnn(C)c4)cc3c(=O)c2c1 [MK-2461]', 'TRUE'),
  ('CCS(=O)(=O)N1CCN(c2ccc(Nc3ncc(C(N)=O)c(NC4CC4)n3)cc2)CC1 [Cerdulatinib Hydrochloride]', 'TRUE'),
  ('COc1cc2ncnc(Oc3cccc(NC(=O)Nc4cc(C(C)(C)C(F)(F)F)on4)c3)c2cc1OC [CEP-32496]', 'FALSE');

Query: # outcome recorded in this test, key = NC(=O)Nc1cc(-c2cccc(F)c2)sc1C(=O)N[C@H]1CCCNC1 [AZD-7762]
Result: TRUE

Query: # outcome recorded in this test, key = NC1(c2ccc(-c3nc4ccn5c(=O)[nH]nc5c4cc3-c3ccccc3)cc2)CCC1 [MK-2206]
Result: FALSE

Query: # outcome recorded in this test, key = CC(=O)NCC(=O)N1[C@@H]2CC[C@H]1c1ccc(Nc3ncc(C(F)(F)F)c(NC4CCC4)n3)cc12 [PF-03814735]
Result: TRUE
